# credit: patent US20110053773A1

For each entry below, report its Phytotoxicity Stunting value.
- System: kale 'Red Russian'
- ASSAY COMMENT: Visual injury of kale after insecticide, fungicide, PGRs, safeners (Example 4)
- ASSAY CONDITIONS: 7 DA-A, rates g ai/ha: chlropyrifos 1120, chlorothalonil 2630, paclobutrazol 3.23, mepiquat-chloride 12.3, + NIS 0.25 % v/v
Numbers only, in %.

Consider the following illustrative entries.
{"COMPOUND": "CCOP(=S)(OCC)Oc1nc(Cl)c(Cl)cc1Cl", "Phytotoxicity Stunting (%)": 9}
{"COMPOUND": "CC(C)(C)[C@@H](O)[C@@H](Cc1ccc(Cl)cc1)n1cncn1 (racemic)", "Phytotoxicity Stunting (%)": 6}
{"COMPOUND": "N#Cc1c(Cl)c(Cl)c(Cl)c(C#N)c1Cl", "Phytotoxicity Stunting (%)": 0}

Moving on to the next compound.
Requested read-out: Phytotoxicity Stunting. Entry: C[N+]1(C)CCCCC1 [mepiquat-chloride]
4
